A collection of molecules and their measured inhibition at 1 µM
- assayed.system: hDGAT1 (Homo sapiens)
- Construct: made in house; host or cells: Sf9 insect cells (baculovirus); microsomal fraction
- Sequence (O75907 1-488): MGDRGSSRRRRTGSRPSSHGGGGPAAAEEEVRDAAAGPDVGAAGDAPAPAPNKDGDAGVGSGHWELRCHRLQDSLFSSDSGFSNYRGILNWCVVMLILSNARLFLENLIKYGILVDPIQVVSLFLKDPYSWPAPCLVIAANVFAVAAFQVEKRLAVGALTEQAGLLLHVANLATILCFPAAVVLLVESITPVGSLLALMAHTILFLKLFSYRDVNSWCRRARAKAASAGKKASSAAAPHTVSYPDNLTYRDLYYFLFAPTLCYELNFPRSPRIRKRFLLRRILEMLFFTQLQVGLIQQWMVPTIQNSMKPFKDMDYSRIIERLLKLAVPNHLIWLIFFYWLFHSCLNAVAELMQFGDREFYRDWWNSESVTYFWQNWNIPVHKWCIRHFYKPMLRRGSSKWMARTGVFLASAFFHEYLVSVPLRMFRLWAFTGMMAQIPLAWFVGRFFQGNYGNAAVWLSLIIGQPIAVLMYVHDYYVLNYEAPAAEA
- procedure.summary: In-vitro DGAT1 assay with hDGAT1 microsomes from Sf9 cells (14C oleoyl CoA, scintillation counting)
- Type: biochemical
- study.conditions: read-out: Percentage inhibition of hDGAT1

Use the examples below as a reference point.
molecule="CC(C)(CCc1ncc(-c2ccc(NC(=O)Nc3cc(F)cc(F)c3)cc2)s1)C(=O)NS(=O)(=O)C(F)(F)F [Example 581]" assayed_system="hDGAT1 (Homo sapiens)" assay_metric="inhibition at 1 µM" result="> 50%"
molecule="CC(C)(CC(=O)O)Cc1ncc(-c2ccc(NC(=O)Nc3ccc(Cl)cc3Oc3ccccc3)cc2)s1 [Example 73]" assayed_system="hDGAT1 (Homo sapiens)" assay_metric="inhibition at 1 µM" result="> 50%"
molecule="O=C(Nc1ccc(-c2cnc(C3CCC(C(=O)O)CC3)s2)cc1)c1ccccc1Cl (stereo not shown) [Example 196]" assayed_system="hDGAT1 (Homo sapiens)" assay_metric="inhibition at 1 µM" result="20 to 50%"

I'm curious: which inhibition at 1 µM was measured for CC(C)(CCc1ncc(-c2ccc(NC(=O)NC3Cc4ccccc4C3)cc2)s1)C(=O)O [Example 251] tested on hDGAT1 (Homo sapiens)?
> 50%
